tested on: Providencia rettgeri; experiment: Expected efficacy of antibiotic agents; conditions: expected efficacy against Providencia rettgeri; Gram: neg
Quantity kind: Efficacy

# example entries with known answers
[[record]]
molecule = "CO/N=C(\\C(=O)N[C@@H]1C(=O)N2C(C(=O)O)=C(CSc3nc(=O)c(=O)[nH]n3C)CS[C@H]12)c1csc(N)n1 [Ceftriaxone]"
result = "yes"

[[record]]
molecule = "CN[C@H](CC(C)C)C(=O)N[C@H]1C(=O)N[C@@H](CC(N)=O)C(=O)N[C@H]2C(=O)N[C@H]3C(=O)N[C@H](C(=O)N[C@H](C(=O)O)c4cc(O)cc(O)c4-c4cc3ccc4O)[C@H](O)c3ccc(c(Cl)c3)Oc3cc2cc(c3O[C@@H]2O[C@H](CO)[C@@H](O)[C@H](O)[C@H]2O[C@H]2C[C@](C)(N)[C@H](O)[C@H](C)O2)Oc2ccc(cc2Cl)[C@H]1O [Vancomycin]"
result = "no"

[[record]]
molecule = "C/C(=C\\C(=O)OCCCCCCCCC(=O)O)C[C@@H]1OC[C@H](C[C@@H]2O[C@H]2[C@@H](C)[C@H](C)O)[C@@H](O)[C@H]1O [Bactroban]"
result = "no"

[[record]]
molecule = "O=C(O)c1cn(C2CC2)c2cc(N3CCNCC3)c(F)cc2c1=O [Ciprofloxacin]"
result = "yes"


Proceeding to the next molecule to report its Efficacy.
Query string: Param item = CC[C@H]1OC(=O)[C@H](C)[C@@H](O[C@H]2C[C@@](C)(OC)[C@@H](O)[C@H](C)O2)[C@H](C)[C@@H](O[C@@H]2O[C@H](C)C[C@H](N(C)C)[C@H]2O)[C@](C)(O)C[C@@H](C)CN(C)[C@H](C)[C@@H](O)[C@]1(C)O [Azithromycin] ; retrieve measured Efficacy.
Result string: no

---

tested on: Serratia marcescens; assay: Expected efficacy of antibiotic agents; conditions: expected efficacy against Serratia marcescens; Gram: neg
Quantity kind: Efficacy

[[record]]
chemical_smiles = "C/C(=C\\C(=O)OCCCCCCCCC(=O)O)C[C@@H]1OC[C@H](C[C@@H]2O[C@H]2[C@@H](C)[C@H](C)O)[C@@H](O)[C@H]1O"
result = "no"

[[record]]
chemical_smiles = "O=C(O)c1cn(C2CC2)c2cc(N3CCNCC3)c(F)cc2c1=O"
result = "yes"

[[record]]
chemical_smiles = "CC[C@H]1OC(=O)[C@H](C)[C@@H](O[C@H]2C[C@@](C)(OC)[C@@H](O)[C@H](C)O2)[C@H](C)[C@@H](O[C@@H]2O[C@H](C)C[C@H](N(C)C)[C@H]2O)[C@](C)(O)C[C@@H](C)CN(C)[C@H](C)[C@@H](O)[C@]1(C)O"
result = "no"

[[record]]
chemical_smiles = "CN[C@H](CC(C)C)C(=O)N[C@H]1C(=O)N[C@@H](CC(N)=O)C(=O)N[C@H]2C(=O)N[C@H]3C(=O)N[C@H](C(=O)N[C@H](C(=O)O)c4cc(O)cc(O)c4-c4cc3ccc4O)[C@H](O)c3ccc(c(Cl)c3)Oc3cc2cc(c3O[C@@H]2O[C@H](CO)[C@@H](O)[C@H](O)[C@H]2O[C@H]2C[C@](C)(N)[C@H](O)[C@H](C)O2)Oc2ccc(cc2Cl)[C@H]1O"
result = "no"

[[record]]
chemical_smiles = "NC[C@H]1O[C@H](O[C@H]2[C@H](O)[C@@H](O[C@H]3O[C@H](CO)[C@@H](O)[C@H](N)[C@H]3O)[C@H](N)C[C@@H]2N)[C@H](N)C[C@@H]1O"
result = "yes"


Query string: Param item = `CO/N=C(\C(=O)N[C@@H]1C(=O)N2C(C(=O)O)=C(CSc3nc(=O)c(=O)[nH]n3C)CS[C@H]12)c1csc(N)n1` ; retrieve measured Efficacy.
Result string: yes

---

tested on: Enterobacter sakazakii; assay: Expected efficacy of antibiotic agents; conditions: expected efficacy against Enterobacter sakazakii; Gram: neg
Quantity kind: Efficacy

# example entries with known answers
[[record]]
molecule = "C/C(=C\\C(=O)OCCCCCCCCC(=O)O)C[C@@H]1OC[C@H](C[C@@H]2O[C@H]2[C@@H](C)[C@H](C)O)[C@@H](O)[C@H]1O [Bactroban]"
result = "no"

[[record]]
molecule = "CC[C@H]1OC(=O)[C@H](C)[C@@H](O[C@H]2C[C@@](C)(OC)[C@@H](O)[C@H](C)O2)[C@H](C)[C@@H](O[C@@H]2O[C@H](C)C[C@H](N(C)C)[C@H]2O)[C@](C)(O)C[C@@H](C)CN(C)[C@H](C)[C@@H](O)[C@]1(C)O [Azithromycin]"
result = "no"

[[record]]
molecule = "CN[C@H](CC(C)C)C(=O)N[C@H]1C(=O)N[C@@H](CC(N)=O)C(=O)N[C@H]2C(=O)N[C@H]3C(=O)N[C@H](C(=O)N[C@H](C(=O)O)c4cc(O)cc(O)c4-c4cc3ccc4O)[C@H](O)c3ccc(c(Cl)c3)Oc3cc2cc(c3O[C@@H]2O[C@H](CO)[C@@H](O)[C@H](O)[C@H]2O[C@H]2C[C@](C)(N)[C@H](O)[C@H](C)O2)Oc2ccc(cc2Cl)[C@H]1O [Vancomycin]"
result = "no"

[[record]]
molecule = "NC[C@H]1O[C@H](O[C@H]2[C@H](O)[C@@H](O[C@H]3O[C@H](CO)[C@@H](O)[C@H](N)[C@H]3O)[C@H](N)C[C@@H]2N)[C@H](N)C[C@@H]1O [Tobramycin]"
result = "yes"


Query string: Param item = CO/N=C(\C(=O)N[C@@H]1C(=O)N2C(C(=O)O)=C(CSc3nc(=O)c(=O)[nH]n3C)CS[C@H]12)c1csc(N)n1 [Ceftriaxone] ; retrieve measured Efficacy.
Result string: yes
